Target: T1, monomeric hCD86 ECD (papain-digested hCD86-mIg) (human, UniProt P42081 24-243)
T1 construct: also called monomeric hCD86-mIg ligand; monomeric CD86 ECD
T1 chain: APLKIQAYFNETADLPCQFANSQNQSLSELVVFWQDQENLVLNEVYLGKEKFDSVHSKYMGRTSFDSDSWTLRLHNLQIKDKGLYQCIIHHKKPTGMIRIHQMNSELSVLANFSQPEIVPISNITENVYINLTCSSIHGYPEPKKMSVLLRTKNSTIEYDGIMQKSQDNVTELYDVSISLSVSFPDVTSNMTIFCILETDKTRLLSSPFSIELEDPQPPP
Assay: SPR Biacore, fusion protein captured, monomeric hCD86 ECD in flow
readout-label: Kd

[
  {
    "binder": "D3-20-IgG2 (Fc fusion) MHVAQPAVVLASSRGIASFVCEYESPGKANEIRVTVLRQADSQVTEVCAMTYMKGNELTFLDDPSCTGTFSGNQVNLTIQGLRAMDTGLYICKVELMYPPPYYLGIGNGTQIYVIDPEPCPDSDERKCCVECPPCPAPPVAGPSVFLFPPKPKDTLMISRTPEVTCVVVDVSHEDPEVQFNWYVDGVEVHNAKTKPREEQFNSTFRVVSVLTVVHQDWLNGKEYKCKVSNKGLPAPIEKTISKTKGQPREPQVYTLPPSREEMTKNQVSLTCLVKGFYPSDIAVEWESNGQPENNYKTTPPMLDSDGSFFLYSKLTVDKSRWQQGNVFSCSVMHEALHNHYTQKSLSLSPG",
    "Kd": "336 to 840 nM"
  }
]

Note: attention shifts to another entry.
I would be grateful if you could share the reported Kd for D3-11-IgG2 (Fc fusion) MHVAQPAVVLASSRGIASFVCEYESPGKANEIRVTVLRQAGSQVTEVCAMTYMKGDELTFLDDPSCTGTFSGNQVNLTIQGLRAMDTGLYICKVELMYPPPYYLGFGNGTQIYVIDPEPCPDSDERKCCVECPPCPAPPVAGPSVFLFPPKPKDTLMISRTPEVTCVVVDVSHEDPEVQFNWYVDGVEVHNAKTKPREEQFNSTFRVVSVLTVVHQDWLNGKEYKCKVSNKGLPAPIEKTISKTKGQPREPQVYTLPPSREEMTKNQVSLTCLVKGFYPSDIAVEWESNGQPENNYKTTPPMLDSDGSFFLYSKLTVDKSRWQQGNVFSCSVMHEALHNHYTQKSLSLSPG .
< 336 nM
